# target of assay: human TRPM5 ion channel (Homo sapiens)
# Construct: expressed in transfected cells
# Sequence (Q9NZQ8 1-1165): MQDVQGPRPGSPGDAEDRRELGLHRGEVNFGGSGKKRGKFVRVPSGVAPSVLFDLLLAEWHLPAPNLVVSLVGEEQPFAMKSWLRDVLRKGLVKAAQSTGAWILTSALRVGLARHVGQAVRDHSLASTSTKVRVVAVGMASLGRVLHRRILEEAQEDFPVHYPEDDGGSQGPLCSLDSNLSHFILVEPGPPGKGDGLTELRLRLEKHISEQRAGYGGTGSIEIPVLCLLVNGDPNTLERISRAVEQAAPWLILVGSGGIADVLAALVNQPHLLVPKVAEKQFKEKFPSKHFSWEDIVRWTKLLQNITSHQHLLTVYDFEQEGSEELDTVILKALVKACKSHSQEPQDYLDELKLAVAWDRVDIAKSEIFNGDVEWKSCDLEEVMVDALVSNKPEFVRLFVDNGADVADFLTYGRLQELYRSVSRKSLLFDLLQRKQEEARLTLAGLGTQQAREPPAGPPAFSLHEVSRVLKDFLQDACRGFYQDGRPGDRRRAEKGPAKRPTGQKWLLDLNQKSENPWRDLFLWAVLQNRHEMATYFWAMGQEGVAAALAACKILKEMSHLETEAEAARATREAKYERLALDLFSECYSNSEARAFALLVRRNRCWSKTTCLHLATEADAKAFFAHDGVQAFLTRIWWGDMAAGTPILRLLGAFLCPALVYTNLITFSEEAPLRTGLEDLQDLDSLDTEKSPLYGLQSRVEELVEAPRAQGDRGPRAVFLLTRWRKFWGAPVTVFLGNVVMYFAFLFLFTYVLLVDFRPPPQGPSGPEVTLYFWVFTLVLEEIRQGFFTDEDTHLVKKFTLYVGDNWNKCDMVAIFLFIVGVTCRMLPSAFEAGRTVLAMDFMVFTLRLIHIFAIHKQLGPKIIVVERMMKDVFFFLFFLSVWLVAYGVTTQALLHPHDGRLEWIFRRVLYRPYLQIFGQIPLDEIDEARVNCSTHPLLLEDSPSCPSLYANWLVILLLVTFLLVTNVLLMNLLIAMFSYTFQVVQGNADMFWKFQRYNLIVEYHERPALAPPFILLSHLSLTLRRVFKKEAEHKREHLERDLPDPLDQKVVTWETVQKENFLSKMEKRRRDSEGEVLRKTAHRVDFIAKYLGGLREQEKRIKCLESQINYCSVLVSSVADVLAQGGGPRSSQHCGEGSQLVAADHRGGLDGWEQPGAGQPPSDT
# assay name: TRPM5 FLIPR membrane potential screening assay (ATP stimulation)
# Assay type: cell-based
# assay setup: 10 μM compound; HEK293 cells stably expressing human TRPM5; 3 μM ATP stimulation; versus negative control wells; read-out: TRPM5 Activity (percent inhibition)
assay metric: inhibition at 10 µM (%)

> print(dat)
                                   compound         assay.metric  measurement
1  C=CCOc1ccc(/C=N/NC(=O)CSCc2cccc(Br)c2)cc1OC  inhibition at 10 µM           80
2  COc1ccc(/C=N/NC(=O)Cc2cccc3ccccc23)cc1OC  inhibition at 10 µM           97
3  Cc1ccc(NCC(=O)N/N=C/c2ccc(N3CCOCC3)c([N+](=O)[O-])c2)cc1C  inhibition at 10 µM           70
4  O=C(O)COc1ccc(Br)cc1/C=N/Nc1cccc2cccnc12  inhibition at 10 µM           87
5       C(=N\N(Cc1ccccc1)c1ccccc1)/c1ccncc1  inhibition at 10 µM           74
6  COc1ccc(/C=N/NC(=O)CC(CO)C2=CCCCC2)cc1 (stereo not drawn)  inhibition at 10 µM           96

Where do these numbers come from? They come from patent US20070207093A1.
